Please provide measured viability, T/C for the entries that follow.
# System: 845751-090-R-J2-PDC tumor spheroid viability;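 also: spheroids exposed to compounds for 7 days before readout; CTG3D luminescence normalised so that 100% = DMSO vehicle control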
# PROTOCOL TEXT: Anticancer human tumor 845751-090-R-J2-PDC patient-derived head and neck squamous carcinoma cell line growth inhibition [IpAb]
# APPLIED CONDITIONS: second compound 10 µM; first compound 10 µM; hits give low values; spheroids with HUVEC and MSC
Numbers only; they are read as %.

Report viability, T/C for CCCS(=O)(=O)Nc1ccc(F)c(C(=O)c2c[nH]c3ncc(-c4ccc(Cl)cc4)cc23)c1F + CC(C)NCC(C(=O)N1CCN(c2ncnc3c2C(C)CC3O)CC1)c1ccc(Cl)cc1
7.71

Report viability, T/C for Cc1nc(NC(=O)N2CCCC2C(N)=O)sc1-c1ccnc(C(C)(C)C(F)(F)F)c1 (configuration not stated) + CC(C)NCC(C(=O)N1CCN(c2ncnc3c2C(C)CC3O)CC1)c1ccc(Cl)cc1
5.74

Report viability, T/C for C=CCn1c(=O)c2cnc(Nc3ccc(N4CCN(C)CC4)cc3)nc2n1-c1cccc(C(C)(C)O)n1 + CC(C)NCC(C(=O)N1CCN(c2ncnc3c2C(C)CC3O)CC1)c1ccc(Cl)cc1
8.16

Report viability, T/C for Cn1ncc(Cl)c1-c1cc(C(=O)NC(CN)Cc2cccc(F)c2)sc1Cl (configuration not stated) + CC(C)NCC(C(=O)N1CCN(c2ncnc3c2C(C)CC3O)CC1)c1ccc(Cl)cc1
0.88

Report viability, T/C for Cn1nccc1Nc1nccc(-c2ccn(C(CO)c3ccc(Cl)c(F)c3)c(=O)c2)n1 (configuration not stated) + CC(C)NCC(C(=O)N1CCN(c2ncnc3c2C(C)CC3O)CC1)c1ccc(Cl)cc1
1.71

Report viability, T/C for C=CC(=O)N1CCN(c2nc(=O)n(-c3c(C)ccnc3C(C)C)c3nc(-c4c(O)cccc4F)c(F)cc23)C(C)C1 (configuration not stated) + CC(C)NCC(C(=O)N1CCN(c2ncnc3c2C(C)CC3O)CC1)c1ccc(Cl)cc1
3.28

Report viability, T/C for CC1(C)CCC(CN2CCN(c3ccc(C(=O)NS(=O)(=O)c4ccc(NCC5CCOCC5)c([N+](=O)[O-])c4)c(Oc4cnc5[nH]ccc5c4)c3)CC2)=C(c2ccc(Cl)cc2)C1 + CC(C)NCC(C(=O)N1CCN(c2ncnc3c2C(C)CC3O)CC1)c1ccc(Cl)cc1
3.52

Hey, just so you know, these numbers are from PubChem BioAssay AID2060333.
